Hello, the source for this data is ChEMBL document CHEMBL5724914, in case you need it.

# PROTOCOL DESCRIPTION: The drug is tested on Z-025 corresponding to rabbit gut metagenome with ENA study accession number: PRJEB37062 and ENA sample accession number: ERS12561824 for biotransformation under anaerobic condition. The drug concentrations were measured over 9 timepoints collected between 0 and 24 hours of incubation by liquid-chromatography-coupled mass spectrometry (LC–MS); also: call rule not given here
# TEST CONDITIONS: 2 µM
REPORTED ENDPOINT: Bacterial Biotransformation

>>> reported_value("Cc1ccc(NC(=O)c2ccc(CN3CCN(C)CC3)cc2)cc1Nc1nccc(-c2cccnc2)n1 [IMATINIB]")
"Compound NOT metabolized"
>>> reported_value("C[N+]12CCC(CC1)C(OC(=O)C(O)(c1ccccc1)c1ccccc1)C2.[Br-] (centres undefined) [CLIDINIUM BROMIDE]")
"Compound NOT metabolized"
>>> reported_value("C[C@]12CCC(=O)C=C1[C@@H]1C[C@@H]1[C@H]1[C@@H]3[C@@H]4C[C@@H]4[C@@]4(CCC(=O)O4)[C@@]3(C)CC[C@@H]12 [DROSPIRENONE]")
"Compound NOT metabolized"
>>> reported_value("CC(C)(C)NC(=O)[C@H]1CC[C@H]2[C@@H]3CC[C@H]4NC(=O)C=C[C@]4(C)[C@H]3CC[C@]12C [FINASTERIDE]")
"Compound NOT metabolized"
>>> reported_value("CCOC(=O)[C@H](CCc1ccccc1)N[C@@H](C)C(=O)N1CCC[C@H]1C(=O)O.O=C(O)/C=C\\C(=O)O [ENALAPRIL MALEATE]")
"Compound NOT metabolized"

Count: 6. Required value per item: Bacterial Biotransformation.
1. CC(NC(C)(C)C)C(=O)c1cccc(Cl)c1 (centres undefined) [BUPROPION]
2. CN1[C@@H]2CC[C@H]1C[C@@H](OC(=O)c1c[nH]c3ccccc13)C2 [TROPISETRON]
3. CC1=C(CC(=O)O)c2cc(F)ccc2/C1=C\c1ccc([S+](C)[O-])cc1 (centres undefined)
4. CN1CCC[C@@H]1CCO[C@](C)(c1ccccc1)c1ccc(Cl)cc1.O=C(O)/C=C/C(=O)O [CLEMASTINE FUMARATE]
5. CC(C)(C)NC[C@H](O)COc1nsnc1N1CCOCC1.O=C(O)/C=C\C(=O)O [TIMOLOL MALEATE]
6. Clc1cccc(Cl)c1N=C1NCCN1 [CLONIDINE]

Response:
1. Compound NOT metabolized
2. Compound NOT metabolized
3. Compound NOT metabolized
4. Compound NOT metabolized
5. Compound NOT metabolized
6. Compound NOT metabolized

Below is a list of molecules. For each, state its recorded Bacterial Biotransformation.
1. c1ccc2[nH]c(-c3cscn3)nc2c1 [THIABENDAZOLE]
2. COc1ccccc1OCCNCC(O)COc1cccc2[nH]c3ccccc3c12 (centres undefined) [CARVEDILOL]
3. CCN(C(C)=O)c1cccc(-c2ccnc3c(C#N)cnn23)c1 [ZALEPLON]
4. CN1C[C@H](C(=O)N[C@]2(C)O[C@@]3(O)[C@@H]4CCCN4C(=O)[C@H](Cc4ccccc4)N3C2=O)C[C@@H]2c3cccc4[nH]cc(c34)C[C@H]21.CS(=O)(=O)O [DIHYDROERGOTAMINE MESYLATE]
5. CN1[C@@H]2CC[C@H]1C[C@@H](OC(=O)[C@H](CO)c1ccccc1)C2 [HYOSCYAMINE]
6. CC(N)C12CC3CC(CC(C3)C1)C2 (centres undefined) [RIMANTADINE]
7. COc1ccc2c(c1)c(CC(=O)O)c(C)n2C(=O)c1ccc(Cl)cc1 [INDOMETHACIN]

Response:
1: Compound NOT metabolized; 2: Compound metabolized; 3: Compound metabolized; 4: Compound metabolized; 5: Compound NOT metabolized; 6: Compound NOT metabolized; 7: Compound NOT metabolized

Dear colleague, could you please provide Bacterial Biotransformation for the molecules listed below?
1. CC(=O)OCC(=O)NCCCOc1cccc(CN2CCCCC2)c1 [ROXATIDINE ACETATE]
2. CN1CCC(OC(c2ccccc2)c2ccccc2)CC1
3. COc1ccc(C(CN(C)C)C2(O)CCCCC2)cc1 (centres undefined) [VENLAFAXINE]
4. O=C1CCc2ccc(OCCCCN3CCN(c4cccc(Cl)c4Cl)CC3)cc2N1 [ARIPIPRAZOLE]
5. O=C(O)CCC(=O)O.O=C(O[C@H]1CN2CCC1CC2)N1CCc2ccccc2[C@@H]1c1ccccc1 [SOLIFENACIN SUCCINATE]

Response:
1: Compound metabolized; 2: Compound metabolized; 3: Compound NOT metabolized; 4: Compound metabolized; 5: Compound metabolized

* * *

# TEST CONDITIONS: human gut metagenome, 24 h, 2 µM
REPORTED ENDPOINT: Bacterial Biotransformation

Consider the reported Bacterial Biotransformation for these molecules:
>>> reported_value("CN(CCOc1ccc(CC2SC(=O)NC2=O)cc1)c1ccccn1.O=C(O)/C=C\\C(=O)O (stereo not drawn) [ROSIGLITAZONE MALEATE]")
"Compound NOT metabolized"
>>> reported_value("C#C[C@]1(OC(C)=O)CC[C@H]2[C@@H]3CCC4=C/C(=N/O)CC[C@@H]4[C@H]3CC[C@@]21CC [NORGESTIMATE]")
"Compound NOT metabolized"
>>> reported_value("COC1=C(OC)C(=O)C(CCCCCCCCCCO)=C(C)C1=O")
"Compound NOT metabolized"
>>> reported_value("CC#C[C@]1(O)CC[C@H]2[C@@H]3CCC4=CC(=O)CCC4=C3[C@@H](c3ccc(N(C)C)cc3)C[C@@]21C")
"Compound metabolized"
>>> reported_value("CC12CC3CC(C)(C1)CC(N)(C3)C2 [MEMANTINE]")
"Compound NOT metabolized"
>>> reported_value("CC#CCn1c(N2CCC[C@@H](N)C2)nc2c1c(=O)n(Cc1nc(C)c3ccccc3n1)c(=O)n2C")
"Compound NOT metabolized"

For each listed entry, give its Bacterial Biotransformation.
1. O=P1(N(CCCl)CCCl)NCCCO1 (stereo not drawn) [CYCLOPHOSPHAMIDE ANHYDROUS]
2. CCOC(=O)[C@H](CCc1ccccc1)N[C@@H](C)C(=O)N1Cc2ccccc2C[C@H]1C(=O)O

Response:
1. Compound NOT metabolized
2. Compound metabolized

* * *

# TEST CONDITIONS: human gut metagenome, 24 h, 2 µM
REPORTED ENDPOINT: Bacterial Biotransformation

Example results:
>>> reported_value("COc1ccccc1OCCNCC(O)COc1cccc2[nH]c3ccccc3c12 (centres undefined) [CARVEDILOL]")
"Compound metabolized"
>>> reported_value("N#Cc1ccc2c(c1)N(CCCN1CCC(O)CC1)c1ccccc1S2 [PERICIAZINE]")
"Compound metabolized"
>>> reported_value("CC(C)NCC(O)COc1ccc(CC(N)=O)cc1 (centres undefined) [ATENOLOL]")
"Compound NOT metabolized"
>>> reported_value("CCN(CC)CCNC(=O)c1ccc(NC(C)=O)cc1 [ACECAINIDE]")
"Compound NOT metabolized"
>>> reported_value("CC(N)C12CC3CC(CC(C3)C1)C2 (centres undefined) [RIMANTADINE]")
"Compound NOT metabolized"
>>> reported_value("CC(C)[C@H]1CC[C@H](C(=O)N[C@H](Cc2ccccc2)C(=O)O)CC1 [NATEGLINIDE]")
"Compound metabolized"

Please state, for each entry, its recorded Bacterial Biotransformation.
1. COCCCC/C(=N\OCCN)c1ccc(C(F)(F)F)cc1.O=C(O)/C=C\C(=O)O [FLUVOXAMINE MALEATE]
2. CC(C)c1nc(N(C)S(C)(=O)=O)nc(-c2ccc(F)cc2)c1/C=C/[C@@H](O)C[C@@H](O)CC(=O)[O-].CC(C)c1nc(N(C)S(C)(=O)=O)nc(-c2ccc(F)cc2)c1/C=C/[C@@H](O)C[C@@H](O)CC(=O)[O-].[Ca+2] [ROSUVASTATIN CALCIUM]
3. O=P1(N(CCCl)CCCl)NCCCO1 (centres undefined) [CYCLOPHOSPHAMIDE ANHYDROUS]

Response:
1. Compound NOT metabolized
2. Compound metabolized
3. Compound NOT metabolized

* * *

# PROTOCOL DESCRIPTION: The drug is tested on Z-026 corresponding to metagenome with ENA study accession number: PRJEB37062 and ENA sample accession number: ERS12561825 for biotransformation under anaerobic condition. The drug concentrations were measured over 9 timepoints collected between 0 and 24 hours of incubation by liquid-chromatography-coupled mass spectrometry (LC–MS)
# TEST CONDITIONS: 2 µM
REPORTED ENDPOINT: Bacterial Biotransformation

Solved entries (count: 5):
>>> reported_value("CCc1cccc2c3c([nH]c12)C(CC)(CC(=O)O)OCC3 (configuration not stated) [ETODOLAC]")
"Compound NOT metabolized"
>>> reported_value("Cc1ccccc1C(OCCN(C)C)c1ccccc1.O=C(O)CC(O)(CC(=O)O)C(=O)O (configuration not stated) [ORPHENADRINE CITRATE]")
"Compound NOT metabolized"
>>> reported_value("CC(=O)O[C@H]1C(=O)[C@@]2(C)[C@H]([C@H](OC(=O)c3ccccc3)[C@]3(O)C[C@H](OC(=O)[C@H](O)[C@@H](NC(=O)c4ccccc4)c4ccccc4)C(C)=C1C3(C)C)[C@]1(OC(C)=O)CO[C@@H]1C[C@@H]2O [PACLITAXEL]")
"Compound metabolized"
>>> reported_value("N#Cc1ccc2[nH]cc(CCCCN3CCN(c4ccc5oc(C(N)=O)cc5c4)CC3)c2c1 [VILAZODONE]")
"Compound NOT metabolized"
>>> reported_value("CN(C)CCOC(C)(c1ccccc1)c1ccccn1.O=C(O)CCC(=O)O (configuration not stated) [DOXYLAMINE SUCCINATE]")
"Compound NOT metabolized"

// for each compound below, give its Bacterial Biotransformation
1. CC[C@@]1(O)C(=O)OCc2c1cc1n(c2=O)Cc2cc3c(CN(C)C)c(O)ccc3nc2-1 [TOPOTECAN]
2. CN1CCC(OC(c2ccccc2)c2ccccc2)CC1
3. COC(=O)[C@H](c1ccccc1Cl)N1CCc2sccc2C1.O=S(=O)(O)O [CLOPIDOGREL BISULFATE]

Response:
["Compound NOT metabolized", "Compound NOT metabolized", "Compound metabolized"]

Batch lookup, Bacterial Biotransformation per entry.
1. CC(C)(C)NCC(O)COc1cccc2c1CC(O)C(O)C2 (configuration not stated) [NADOLOL]
2. CN(CCOc1ccc(CC2SC(=O)NC2=O)cc1)c1ccccn1.O=C(O)/C=C\C(=O)O (configuration not stated) [ROSIGLITAZONE MALEATE]
3. COc1ccc(/C=C/C(=O)Nc2ccccc2C(=O)O)cc1OC
4. CC(C)(C)NCC(O)c1cc(Cl)c(N)c(Cl)c1 (configuration not stated) [CLENBUTEROL]
5. CCOC(=O)C1=C[C@]2(CC)CCCN3CCc4c(n1c1ccccc41)[C@@H]32 [VINPOCETINE]

Response:
["Compound NOT metabolized", "Compound NOT metabolized", "Compound metabolized", "Compound NOT metabolized", "Compound NOT metabolized"]

# batch size: 4; output Bacterial Biotransformation per entry
1. CCN(CC)CCNC(=O)c1cc(S(C)(=O)=O)ccc1OC [TIAPRIDE]
2. CN1CCCCC1CCN1c2ccccc2Sc2ccc([S+](C)[O-])cc21.O=S(=O)(O)c1ccccc1 (configuration not stated) [MESORIDAZINE BESYLATE]
3. CN(C)CCC=C1c2ccccc2COc2ccccc21 [DOXEPIN]
4. COc1cc2nc(N3CCN(C(=O)C4COc5ccccc5O4)CC3)nc(N)c2cc1OC.CS(=O)(=O)O (configuration not stated) [DOXAZOSIN MESYLATE]

Response:
1. Compound NOT metabolized
2. Compound NOT metabolized
3. Compound NOT metabolized
4. Compound metabolized
